For each entry below, report its Inhibition value.
System: Plasmodium falciparum
EXPERIMENT_NOTES: GSK_TCMDC: Inhibition of Plasmodium falciparum Dd2 in whole red blood cells, using parasite LDH activity as an index of growth. Test compounds present at 2uM
Type: functional
Answers are plain numbers, in %.

Each molecule below has a recorded value; state its Inhibition.
1. CS(=O)(=O)N(CC(O)Cn1c2ccc(Cl)cc2c2cc(Cl)ccc21)c1ccccc1 (centres undefined)
2. Cc1cc(OCCCN2CCN(CCN3CCOCC3)CC2)ccc1NC(=O)COc1ccc(Cl)cc1C(=O)c1cc(Cl)cc(C#N)c1
3. OC(CNc1ccnc(Nc2ccc(Cl)cc2)n1)c1ccc(C(F)(F)F)cc1 (centres undefined)
4. Cc1cc(NCCC(=O)Nc2ccccc2)nc(NCCOc2ccccc2)n1.O=C(O)C(F)(F)F

Response:
1: 98; 2: 78; 3: 94; 4: 9

# batch size: 2; output Inhibition per entry
1. CC1CCCC(C)N1C[C@@H](O)CNS(=O)(=O)c1cccc(C(F)(F)F)c1.Cl (some centres undefined)
2. CCOc1cc(Br)c(C(C)NC(=O)c2cccc(OC)c2)cc1OCC (centres undefined)

Response:
1. 2
2. 37

Field: Inhibition. Fill in for each record below.
1. Cc1ccc(NC(=O)c2ccc(CN3CCCN(CC4CCCCC4)CC3)cc2)cc1.O=C(O)C(F)(F)F
2. CC(C)OC(=O)c1ccccc1S(N)(=O)=O
3. Cc1cc(N/N=C/c2cccc([N+](=O)[O-])c2)c2ccc(C(F)(F)F)cc2n1

Response:
42
0
51

====

Tested on: HepG2
EXPERIMENT_NOTES: GSK_TCMDC: Percent inhibition of human HepG2 cell line. Test compounds present at 10uM.
Format: functional
READOUT: Inhibition (%)
Give bare numbers, in %.

CCC1CCc2cc(N)cc(-c3nc4c(c(C)nn4CC)c(=O)[nH]3)c2O1 (centres undefined) : 0

Batch of 8 compounds: report Inhibition for each.
1. CC(C)C[C@H](NC(=O)[C@H](Cc1ccccc1)N(C[C@H](Cc1ccccc1)NC(=O)OC(C)(C)C)C(=O)C(F)(F)F)C(=O)NC1CCN(Cc2ccccc2)CC1
2. COc1ccc(-c2cc(C(=O)N3CCc4ccccc43)c3ccccc3n2)cc1OC
3. O=C(Nc1ccc(OC2CCN(Cc3ccc(F)cc3)C2)cc1)c1ccco1.O=C(O)C(F)(F)F (centres undefined)
4. Br.Oc1ccc(CCNCCCCCCNCCc2ccc(-c3ccccc3)cc2)cc1O
5. COc1cc2nccc(Nc3ccc4c(cnn4Cc4ccccc4F)c3)c2cc1OC.Cl
6. Nc1nccc2ccc(Oc3ccncc3)cc12
7. CC(C)CN1CCN(c2nc(C#N)c3c(c2C(=S)NC2CCCCC2)CC(C)(C)OC3)CC1
8. CCOC(=O)N1CCN(C(=O)Nc2ccc(Cl)cc2)CC1

Response:
13
5
0
72
55
0
0
4

====

Tested on: Plasmodium falciparum
EXPERIMENT_NOTES: GSK_TCMDC: Inhibition of Plasmodium falciparum Dd2 in whole red blood cells, using parasite LDH activity as an index of growth. Test compounds present at 2uM
Type: functional
Please mark Criterion met if the recorded Inhibition is equal to or greater than 80%, and Criterion not met if it falls below.

Some solved entries appear below for comparison.
CC(C)NCc1ccc(-c2cccc(NC(=O)c3cccc(Cl)c3)c2)cc1.O=C(O)C(F)(F)F : Criterion met
O=C(O)C(F)(F)F.O=S(=O)(NCCN1CCCC1)c1cccc(-c2cccc(CNCCc3cccs3)c2)c1 : Criterion not met
N#Cc1cccc(NC(=O)Nc2cccc(-c3cccc(-c4nc5cc(F)ccc5[nH]4)c3)c2)c1 : Criterion not met
COc1ccc(NC(=O)/C=C/c2ccccc2Cl)cc1OCCN1CCC(O)(c2ccc(Cl)c(C(F)(F)F)c2)CC1.Cl : Criterion not met
CC1=C(C(=O)Nc2cc3cn[nH]c3cc2F)C(c2ccc(Cl)c(NS(C)(=O)=O)c2)CC(=O)N1 (configuration not stated) : Criterion met
Cc1ccn2c(C(=O)N3CCN(c4cccc5c4nc(-c4ccoc4)n5Cc4ccccn4)CC3)c(C)nc2c1 : Criterion met

Query: # bool: Inhibition of Cl.NC(=O)c1cccc(Nc2nccc(Nc3ccc(Oc4cccc(Cl)c4)c(Cl)c3)n2)c1 >= 80%
Response: Criterion not met

Query: Assess whether reported Inhibition for COc1ccccc1C(=O)N1CCN(Cc2cccs2)CC1 sits at 80% or higher.
Response: Criterion not met

Query: Please check the record CNCCNCc1cccc(-c2ccc(-c3nc4ccccc4[nH]3)cc2)c1.O=C(O)C(F)(F)F and state if its Inhibition is at or above 80%.
Response: Criterion not met

Query: Evaluate COc1ccc(C=NNc2nc3ccccc3[nH]2)cc1O : Inhibition at minimum 80%?
Response: Criterion not met

Query: Form field: Inhibition at least 80%? Entry: CCOc1ccccc1C(=O)Nc1cccc(-c2nc3ncccn3c2C)c1
Response: Criterion met

Query: Exam item: decide whether the reported Inhibition for Cc1ccc(N)cc1-c1nc(NC2CC(C)(C)NC(C)(C)C2)nc2c1ccc(=O)n2-c1c(F)cccc1F is at least 80%.
Response: Criterion not met

Query: Could you please find out whether CCCc1ccccc1OCC(O)CN(C1CCCC1)C1CCCC1.Cl (configuration not stated) has Inhibition that meets 80% or exceeds it?
Response: Criterion met

Query: Is reported Inhibition greater than or equal to 80% here: CCCCSc1ccc2nc(-c3c[nH]c4ccc(C#N)cc34)cn2c1
Response: Criterion not met

Query: # check: Inhibition of O=C(Nc1cccc(-c2ccc(-c3nc4cc(C(F)(F)F)ccc4[nH]3)cc2)c1)c1cccnc1 is greater than or equal to 80%
Response: Criterion met

Query: Does Inhibition meet or surpass 80% for CCc1c(C(=O)NC2CCC(N3CCC(c4ccccc4C)CC3)CC2)[nH]c2ccc(OC)cc12 (configuration not stated) ?
Response: Criterion met

====

Test system: Plasmodium falciparum
EXPERIMENT_NOTES: GSK_TCMDC: Inhibition of Plasmodium falciparum Dd2 in whole red blood cells, using parasite LDH activity as an index of growth. Test compounds present at 2uM
Type: functional
READOUT: Inhibition

O=C(/C=C/c1ccc(Cl)c(Cl)c1)N1CCC(CCCN2CCC(c3c[nH]c4ccccc34)CC2)CC1 : 45%
O=C(Nc1ccc2c(c1)CCNCC2)Nc1ccc2ccccc2c1.O=C(O)C(F)(F)F : 23%

# batch size: 4; output Inhibition per entry
1. COc1ccc(N2CCN(CCCCNC(=O)c3ccc(NC(=O)c4ccc(Cl)cc4)cc3)CC2)c(C)c1
2. CN(C)Cc1ccc(-c2ccc3c(Nc4ccc(Oc5ccccn5)cc4)ccnc3c2)o1
3. CN1CCC[C@H]1COc1ccc(CN2CC[C@H](NC(=O)c3ccc(Cl)c(Cl)c3)C2)cc1Br.O=C(O)C(F)(F)F
4. Cc1cc(=NN=Cc2cccc(F)c2)c2cc(F)ccc2[nH]1

Response:
1. 51%
2. 100%
3. 20%
4. 99%

====

System: Plasmodium falciparum
EXPERIMENT_NOTES: GSK_TCMDC: Inhibition of Plasmodium falciparum 3D7 in whole red blood cells, using parasite LDH activity as an index of growth. Test compounds present at 2uM
Type: functional
For each of the compounds below, state its Inhibition.
Numbers only, in %.

Previously resolved entries follow.
Cc1cccc2nc(-c3ccc(-c4ccc(CNCc5ccccc5)cc4)cc3)[nH]c12.O=C(O)C(F)(F)F : 99
Cc1cc(C)c(-c2n[nH]c3c2C(c2cccc(Cl)c2)N(Cc2ccco2)C3=O)c(O)c1 (stereo not drawn) : 96
N=C(N)NC(=O)Nc1cc(Br)c(Br)c(Br)c1 : 100
CC(C)OC(=O)c1ccc(NC(=O)N[C@@H](Cc2ccc(O)cc2)C(=O)NC2CCC(CCN3C4CCC3c3ccccc34)CC2)cc1.O=C(O)C(F)(F)F (stereo partly drawn) : 95
Cc1nn(-c2ccccc2)nc1C(=O)NC1CCN(CCNC(=O)c2ccc(Cl)c(Cl)c2)CC1.O=C(O)C(F)(F)F : 89
O=C(Nc1cccc(-c2nn3ccccc3c2-c2ccnc(Nc3cccc(F)c3)n2)c1)C1CCCCC1 : 85

Below is a list of compounds. For each, state its recorded Inhibition.
1. COc1ccc(NC(=O)Nc2cccc(-c3ccc(-c4nc5cc(C(F)(F)F)ccc5[nH]4)cc3)c2)cc1
2. C=Cc1c(C2CCN(CCCCNC(=O)c3ccc(-c4ccc(C#N)cc4)cc3)CC2)ccc2c1CCCC2

Response:
[100, 94]

====

Kindly supply the reported Inhibition values for the records listed here.
Tested on: Plasmodium falciparum
EXPERIMENT_NOTES: GSK_TCMDC: Inhibition of Plasmodium falciparum 3D7 in whole red blood cells, using parasite LDH activity as an index of growth. Test compounds present at 2uM
Format: functional
Numbers only, in %.

// worked examples, Inhibition included
Cc1n[nH]c2cc(Nc3ccnc(Nc4ccc(CN5CCOCC5)cc4)n3)ccc12 : 97
CCOC(=O)c1nc(-c2cc(Cl)nc(Cl)c2)[nH]c1NC(=S)NCCCN1CCOCC1 : 89
CC[C@H](C)CNC(=O)c1cccc(-c2ccc(CN3CCC(N4CCCC4)CC3)cc2)n1.O=C(O)C(F)(F)F : 100

Please give Inhibition for each item listed below.
1. Cc1c(S(=O)(=O)Nc2ccc3nccc(N4CCN[C@H](C)C4)c3c2)sc2ccc(Cl)cc12.Cl
2. COc1ccc(C2CC(=O)C3=C(C2)NC(C)=C(C(=O)OC(C)C)C3c2cccc(O)c2)cc1OC (stereo not given)

Response:
[96, 100]
